Target: CTLA-4 (Homo sapiens)
Sequence (P16410 36-223): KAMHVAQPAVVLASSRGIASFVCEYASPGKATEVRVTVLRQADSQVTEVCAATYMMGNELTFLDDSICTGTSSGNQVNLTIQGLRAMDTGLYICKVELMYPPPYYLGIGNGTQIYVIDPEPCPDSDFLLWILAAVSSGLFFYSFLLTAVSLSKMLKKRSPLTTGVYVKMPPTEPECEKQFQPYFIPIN
Experiment: ELISA binding of clones after Affinity Maturation with random library (Tables 10, 11)
Conditions: CTLA-4 binding ELISA of clones after Affinity Maturation from random (NNS) library; signal/noise ratio; clones of 4th or 5th round
parameter-measured: ELISA S/N(SA)
Answer using only a numeral; do not append any unit.

(Q) Query (substance): C4m3127-4th-NNS6-72 (GGCVHPYLPISSIHFCSM; C4m3127-4th-NNS6-72) [Clone C4m3127-4th-NNS6-72] ; field requested: ELISA S/N(SA)
(A) 20.0

(Q) Then this substance: C4m#19-5th4w-NN6-92-1 (GGCVHPFLPIRSVHFCAL; C4m#19-5th4w-NN6-92-1)
(A) 30.0

(Q) Then this substance: C4m#19-5th4w-NN6-85 (GGCWHPFLPIFSVHFCGC; C4m#19-5th4w-NN6-85)
(A) 22.9

(Q) Then this substance: C4m#19-5th4w-NN6-4 (GGCRHPYLPIVSRHFCPF; C4m#19-5th4w-NN6-4)
(A) 31.6

(Q) Then this substance: C4m#19-5th4w-NN6-62 (GGCQHPYLPIWSFHFCPF; C4m#19-5th4w-NN6-62)
(A) 17.2

(Q) Then this substance: C4m#19-5th4w-NN6-77 (GGCRHPFLPIVSTHFCSR; C4m#19-5th4w-NN6-77)
(A) 30.5

(Q) Then this substance: C4m#19-5th4w-NN6-93 (GGCCHPWLPIVSTHFCGL; C4m#19-5th4w-NN6-93)
(A) 28.9

(Q) Then this substance: C4m#19-5th2w-NNS6-87 (GGCLHPYLPIFSVHFCAL; C4m#19-5th2w-NNS6-87)
(A) 4.5

(Q) Then this substance: C4m#19-6th4w-NN6-5-3 (GGCWHPFLPILSLHFCGW; left off: large carriers; small tags and cut ends)
(A) 14.7

(Q) Then this substance: C4m#19-5th4w-NN6-11 (GGCRHPFLPIWSHHFCVC; C4m#19-5th4w-NN6-11)
(A) 22.1

(Q) Then this substance: C4m#19-5th4w-NN6-80 (GGCRHPFLPIFSWHFCAV; C4m#19-5th4w-NN6-80)
(A) 3.8

(Q) Then this substance: C4m#19-5th4w-NN6-24 (GGCWHPWLPIYSHHFCPI; C4m#19-5th4w-NN6-24)
(A) 27.6

(Q) Then this substance: C4m#19-5th2w-NNS6-70 (GGCRHPFLPIVSWHFCAA; C4m#19-5th2w-NNS6-70)
(A) 5.1

(Q) Then this substance: C4m#19-5th4w-NN6-74 (GGCFHPFLPIYSWHFCAR; C4m#19-5th4w-NN6-74)
(A) 15.1

(Q) Then this substance: C4m#19-5th2w-NNS6-12 (GGCWHPYLPIRSVHFCGR; C4m#19-5th2w-NNS6-12)
(A) 20.4

(Q) Then this substance: C4m#19-5th4w-NN6-78 (GGCWHPALPIRSWHFCPR; C4m#19-5th4w-NN6-78)
(A) 27.9

(Q) Then this substance: C4m#19-5th4w-NN6-87 (GGCLHPVLPIRSFHFCWR; C4m#19-5th4w-NN6-87)
(A) 21.4

(Q) Then this substance: C4m#19-5th4w-NN6-70 (GGCMHPFLPIRSMHFCPL; C4m#19-5th4w-NN6-70)
(A) 35.5

(Q) Then this substance: C4m#19-5th2w-NNS6-4 (GGCFHPWLPISSLHFCPF; C4m#19-5th2w-NNS6-4)
(A) 6.3

(Q) Then this substance: C4m3127-4th-NNS6-80 (GGCGHPFLPIFSLHFCPR; C4m3127-4th-NNS6-80) [Clone C4m3127-4th-NNS6-80]
(A) 12.8

(Q) Then this substance: C4m#19-5th4w-NN6-47 (GGCPHPWLPIFSRHFCPV; C4m#19-5th4w-NN6-47)
(A) 34.2

(Q) Then this substance: C4m#19-5th4w-NN6-53 (GGCRHPFLPIYSVHFCAC; C4m#19-5th4w-NN6-53)
(A) 32.2

(Q) Then this substance: C4m#19-5th4w-NN6-52 (GGCLHPFLPIRSVHFCGC; C4m#19-5th4w-NN6-52)
(A) 28.6

(Q) Then this substance: C4m#19-5th2w-NNS6-34 (GGCCHPFLPIYSVHFCAS; C4m#19-5th2w-NNS6-34)
(A) 5.0

###

Target: CTLA-4 (Homo sapiens)
Sequence (P16410 36-223): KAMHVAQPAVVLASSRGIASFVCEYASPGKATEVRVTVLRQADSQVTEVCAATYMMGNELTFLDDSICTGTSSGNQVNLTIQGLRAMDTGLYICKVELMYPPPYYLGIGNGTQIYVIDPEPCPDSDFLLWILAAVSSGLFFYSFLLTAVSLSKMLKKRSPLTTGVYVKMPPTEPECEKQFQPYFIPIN
Test: ELISA binding of clones after Affinity Maturation with random library (Tables 10, 11)
Settings: CTLA-4 binding ELISA of clones after Affinity Maturation from random (NNS) library; signal/noise ratio; clones of 4th or 5th round
parameter-measured: ELISA S/N(SA)
Answer using only a numeral; do not append any unit.

(Q) Query (substance): C4m#19-5th2w-NNS6-61 (GGCCHPWLPIRSVHFCPF; C4m#19-5th2w-NNS6-61) ; field requested: ELISA S/N(SA)
(A) 4.3

(Q) Then this substance: C4m#19-5th4w-NN6-63 (GGCWHPYLPILSRHFCQA; C4m#19-5th4w-NN6-63)
(A) 16.5

(Q) Then this substance: C4m#19-5th4w-NN6-19 (GGCRHPYLPIWSIHFCQK; C4m#19-5th4w-NN6-19)
(A) 29.7

(Q) Then this substance: C4m3127-4th-NNS6-16 (GGCWHPYLPIFSVHFCPR; C4m3127-4th-NNS6-16) [Clone C4m3127-4th-NNS6-16]
(A) 16.5

(Q) Then this substance: C4m#19-5th4w-NN6-20 (GGCSHPQLPILSDHFCSA; C4m#19-5th4w-NN6-20)
(A) 30.6

(Q) Then this substance: C4m#19-5th4w-NN6-9 (GGCFHPYLPIRSWHFCGR; C4m#19-5th4w-NN6-9)
(A) 28.8

(Q) Then this substance: C4m3127-4th-NNS6-70 (GGCSHPYLPIHSRHFCLS; C4m3127-4th-NNS6-70) [Clone C4m3127-4th-NNS6-70]
(A) 4.6

(Q) Then this substance: C4m#19-5th4w-NN6-38 (GGCSHPFLPIFSLHFCPV; C4m#19-5th4w-NN6-38)
(A) 16.6

(Q) Then this substance: C4m#19-5th2w-NNS6-84 (GGCWHPFLPIVSFHFCPF; C4m#19-5th2w-NNS6-84)
(A) 6.4

(Q) Then this substance: C4m#19-5th2w-NNS6-94 (GGCFHPYLPISSVHFCGR; C4m#19-5th2w-NNS6-94)
(A) 22.4

###

I'd be grateful if you could share measured ELISA S/N(SA) for these entries.
Target: CTLA-4 (Homo sapiens, UniProt P16410)
Sequence (P16410 36-223): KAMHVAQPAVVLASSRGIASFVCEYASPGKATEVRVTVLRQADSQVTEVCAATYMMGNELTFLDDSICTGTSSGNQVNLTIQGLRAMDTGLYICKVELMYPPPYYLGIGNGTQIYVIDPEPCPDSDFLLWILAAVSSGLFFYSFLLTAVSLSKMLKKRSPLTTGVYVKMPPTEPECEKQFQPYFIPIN
Assay: ELISA binding of clones after Affinity Maturation with random library (Tables 10, 11)
Settings: CTLA-4 binding ELISA of clones after Affinity Maturation from random (NNS) library; signal/noise ratio; clones of 4th or 5th round
Answer using only a numeral; do not append any unit.

(Q) Query (substance): C4m#19-5th4w-NN6-83 (GGCLHPLLPILSVHFCPS; C4m#19-5th4w-NN6-83) ; field requested: ELISA S/N(SA)
(A) 12.0

(Q) Then this substance: C4m3127-4th-NNS6-60 (GGCWHPFLPISSWHFCGL; C4m3127-4th-NNS6-60) [Clone C4m3127-4th-NNS6-60]
(A) 11.9

(Q) Then this substance: C4m#19-5th4w-NN6-21 (GGCWHPWLPILSPHFCPR; C4m#19-5th4w-NN6-21)
(A) 37.5

(Q) Then this substance: C4m#19-5th2w-NNS6-6 (GGCWHPYLPILSLHFCQR; C4m#19-5th2w-NNS6-6)
(A) 10.3

(Q) Then this substance: C4m3127-4th-NNS6-7 (GGCRHPFLPIRSPHFCGS; C4m3127-4th-NNS6-7) [Clone C4m3127-4th-NNS6-7]
(A) 4.7

(Q) Then this substance: C4m3127-4th-NNS6-3 (GGCSHPFLPIWSVHFCGQ; C4m3127-4th-NNS6-3) [Clone C4m3127-4th-NNS6-3]
(A) 10.9

(Q) Then this substance: C4m#19-5th4w-NN6-90 (GGCRHPWLPIVSYHFCSS; C4m#19-5th4w-NN6-90)
(A) 21.2

(Q) Then this substance: C4m#19-5th4w-NN6-69-3 (GGCLHPWLPIVSVHFCAR; C4m#19-5th4w-NN6-69-3)
(A) 24.9
